system: CP191; assay: qHTS profiling for inhibitors of Plasmodium falciparum proliferation (AID 504749); also: nearly all actives have a fitted effect of over 60% in size; settings: P. falciparum in erythrocytes, SYBR Green DNA, 72 h; series mostly up to 28.7 µM
Results filed as inconclusive are left out. Active and inactive are the calls of the source. Calls follow the shape of the dose curve; as a rule, active = well fitted inhibition curve with a large enough effect; inconclusive = small, poorly fitted or top-dose-only effect; inactive = flat fitted curve, though single readings scatter.
Possible outcomes: y for active, n for inactive

>>> print(df.to_string())
                                    molecule  assigned_class
 0               NC(=O)OCC(COC(N)=O)c1ccccc1               n
 1                Cn1cnc2c1c(=O)[nH]c(=O)n2C               n
 2  Cc1cn([C@H]2C[C@H](N=[N+]=[N-])[C@@H](CO)O2)c(=O)[nH]c1=O               n
 3  CC(C)(Oc1ccc(C2CC2(Cl)Cl)cc1)C(=O)O (configuration not stated)               n
 4           Cc1cc(C(C)(C)C)cc(C)c1CC1=NCCN1               n
 5  CN(CCOc1ccc(NS(C)(=O)=O)cc1)CCc1ccc(NS(C)(=O)=O)cc1               n
 6  O=C(c1ccc(OCCN2CCCCC2)cc1)c1c(-c2ccc(O)cc2)sc2cc(O)ccc12               y
 7                                  NC(=O)NO               n
 8               CN(C)c1nc(N(C)C)nc(N(C)C)n1               n
 9  COc1ccccc1OCC(O)CN1CCN(CC(=O)Nc2c(C)cccc2C)CC1 (configuration not stated)               n
10                Cn1c(=O)c2[nH]cnc2n(C)c1=O               n
11    COC(=O)Nc1nc2ccc(C(=O)c3cccs3)cc2[nH]1               n

---

experiment: Quantitative High-Throughput drug screen in 47 multiple myeloma cell lines against the NCATS MIPE library collection: KMS34_JCRB cell viability assay (AID 1918985); conditions: KMS34 myeloma viability, CellTiter-Glo ATP luminescence, 48 h; series mostly up to 45.8 µM; also: nearly all actives have a fitted effect of over 40% in size
Inconclusive results are not listed. Activity calls are given as the source filed them. Calls follow the shape of the dose curve; as a rule, active = well fitted cell-killing curve with a large enough effect; inconclusive = small, poorly fitted or top-dose-only effect, or effect the other way; inactive = no such curve, though single readings can be large or run the other way.
Possible outcomes: active, inactive

In [3]: df
Out[3]:
                                    compound  assigned_class
 0  CN1C(C(=O)Nc2ccccn2)=C(O)c2ccccc2S1(=O)=O        inactive
 1      Clc1ccc2c(c1)C(N1CCNCC1)=Nc1ccccc1O2          active
 2               NC(=O)OCC(COC(N)=O)c1ccccc1        inactive
 3           CN(C)CCC=C1c2ccccc2C=Cc2ccccc21        inactive
 4     CCC1(C)CC(=O)NC1=O (stereo not given)        inactive
 5  CC(C)Cc1ccc(C(C)C(=O)O)cc1 (stereo not given)        inactive
 6  Cc1cn([C@H]2C[C@H](N=[N+]=[N-])[C@@H](CO)O2)c(=O)[nH]c1=O        inactive
 7               CN(C)c1nc(N(C)C)nc(N(C)C)n1        inactive
 8  CC(C)(C)C(=O)Oc1ccc(S(=O)(=O)Nc2ccccc2C(=O)NCC(=O)O)cc1        inactive
 9  COc1ccc2c(c1)c(CC(=O)O)c(C)n2C(=O)c1ccc(Cl)cc1        inactive
10           Cc1cc(C(C)(C)C)cc(C)c1CC1=NCCN1        inactive
11          Nc1nc2c(ncn2COC(CO)CO)c(=O)[nH]1          active
12  CC(CCc1ccc(O)cc1)NCCc1ccc(O)c(O)c1 (stereo not given)          active
13                CCC1(c2ccccc2)C(=O)NCNC1=O        inactive
14  CCCCc1oc2ccccc2c1C(=O)c1cc(I)c(OCCN(CC)CC)c(I)c1          active
15  O=C1c2c(O)ccc(O)c2C(=O)c2c(NCCNCCO)ccc(NCCNCCO)c21          active
16  CC(C)C(=O)Nc1ccc([N+](=O)[O-])c(C(F)(F)F)c1        inactive
17                Cn1c(=O)c2c(ncn2C)n(C)c1=O        inactive
18  CC#C[C@]1(O)CC[C@H]2[C@@H]3CCC4=CC(=O)CCC4=C3[C@@H](c3ccc(N(C)C)cc3)C[C@@]21C          active
19  C[C@@H]1CC(=O)NN=C1c1ccc(NN=C(C#N)C#N)cc1          active
20                Cn1cnc2c1c(=O)[nH]c(=O)n2C          active
21  CCc1cccc2c3c([nH]c12)C(CC)(CC(=O)O)OCC3 (stereo not given)        inactive
22  O=C(Nc1ccc([N+](=O)[O-])cc1Cl)c1cc(Cl)ccc1O          active
23  CC(C)NCC(O)COc1ccc(CCOCC2CC2)cc1 (stereo not given)          active
24  O=C(C1CCCCC1)N1CC(=O)N2CCc3ccccc3C2C1 (stereo not given)        inactive

---

assay: Quantitative High-Throughput drug screen in 47 multiple myeloma cell lines against the NCATS MIPE library collection: AMO1_DSMZ cell viability assay (AID 1918927; also: nearly all actives have a fitted effect of over 30% in size); settings: AMO1 myeloma cells viability, CellTiter-Glo ATP luminescence, 48 h; series mostly up to 45.8 µM
Inconclusive results are not listed. Active and inactive are the calls of the source. Calls come from the whole dose curve; as a rule, active = well fitted cell-killing curve with a large enough effect; inconclusive = small, poorly fitted or top-dose-only effect, or effect the other way; inactive = no such curve, though single readings can be large or run the other way.
Possible outcomes: 1 for active, 0 for inactive

>>> print(df.to_string())
                                   compound  assigned_class
0        Cc1cc(C(C)(C)C)c(O)c(C)c1CC1=NCCN1               0
1                CCC1(c2ccccc2)C(=O)NCNC1=O               1
2      CN1CCC(=C2c3ccccc3CC(=O)c3sccc32)CC1               1
3  O=C(C1CCCCC1)N1CC(=O)N2CCc3ccccc3C2C1 (centres undefined)               0

---

test: Quantitative High-Throughput drug screen in 47 multiple myeloma cell lines against the NCATS MIPE library collection: NCIH929_DSMZ cell viability assay (AID 1918978); conditions: NCI-H929 myeloma viability, CellTiter-Glo ATP, 48 h; series mostly up to 45.8 µM; also: nearly all actives have a fitted effect of over 35% in size
Inconclusive results are not listed. Calls of active or inactive are those of the source. The call rests on the fitted dose curve; in most records, active means well fitted cell-killing curve with a large enough effect; inconclusive means small, poorly fitted or top-dose-only effect; inactive means no such curve, though single readings can be large or run the other way.
Possible outcomes: active, inactive

compound	assigned-class
CCOC(=O)c1ncn2c1CN(C)C(=O)c1cc(F)ccc1-2	inactive
CCOC(=O)C(C)(C)Oc1ccc(Cl)cc1	inactive
Cc1ccc(C(=O)Nc2ccc(S(=O)(=O)O)c3cc(S(=O)(=O)O)cc(S(=O)(=O)O)c23)cc1NC(=O)c1cccc(NC(=O)Nc2cccc(C(=O)Nc3cc(C(=O)Nc4ccc(S(=O)(=O)O)c5cc(S(=O)(=O)O)cc(S(=O)(=O)O)c45)ccc3C)c2)c1	inactive
CS(=O)(=O)CCNCc1ccc(-c2ccc3ncnc(Nc4ccc(OCc5cccc(F)c5)c(Cl)c4)c3c2)o1	active
NC12CC3CC(CC(C3)C1)C2	active
CN(C)C(=N)N=C(N)N	inactive
Cc1cnc(C(=O)NCCc2ccc(S(=O)(=O)NC(=O)NC3CCCCC3)cc2)cn1	inactive
CN(CCOc1ccc(NS(C)(=O)=O)cc1)CCc1ccc(NS(C)(=O)=O)cc1	inactive
C[C@@H]1CC(=O)NN=C1c1ccc(NN=C(C#N)C#N)cc1	active
CN1C(C(=O)Nc2ccccn2)=C(O)c2ccccc2S1(=O)=O	inactive
CN(Cc1cnc2nc(N)nc(N)c2n1)c1ccc(C(=O)N[C@@H](CCC(=O)O)C(=O)O)cc1	active
CN(C)c1nc(N(C)C)nc(N(C)C)n1	inactive
C[C@H]1c2cccc(O)c2C(O)=C2C(=O)[C@]3(O)C(O)=C(C(N)=O)C(=O)[C@@H](N(C)C)[C@@H]3[C@@H](O)[C@@H]21	active
N[C@@H](Cc1c[nH]c2ccc(O)cc12)C(=O)O	inactive
NCCc1cnc[nH]1	inactive
COc1nc(C)nc(Cl)c1NC1=NCCN1	active
Cc1cn([C@H]2C=C[C@@H](CO)O2)c(=O)[nH]c1=O	inactive
COc1ccc2c(c1)c(CC(=O)O)c(C)n2C(=O)c1ccc(Cl)cc1	active
Cn1cnc2c1c(=O)[nH]c(=O)n2C	active
CC(C(=O)O)c1cccc(C(=O)c2ccccc2)c1 (configuration not stated)	active
CC(C)(Oc1ccc(C2CC2(Cl)Cl)cc1)C(=O)O (configuration not stated)	inactive
NC(=O)NO	active
